measurement target: T1, human PD-L1 ECD-His (human, UniProt Q9NZQ7 19-238)
T1 construct: extracellular domain; Analyte in all SPR and BLI runs; also called hPD-L1_ECD-His; hPD-L1 ECD-His; not shown: His tag
T1 sequence (Q9NZQ7 19-238): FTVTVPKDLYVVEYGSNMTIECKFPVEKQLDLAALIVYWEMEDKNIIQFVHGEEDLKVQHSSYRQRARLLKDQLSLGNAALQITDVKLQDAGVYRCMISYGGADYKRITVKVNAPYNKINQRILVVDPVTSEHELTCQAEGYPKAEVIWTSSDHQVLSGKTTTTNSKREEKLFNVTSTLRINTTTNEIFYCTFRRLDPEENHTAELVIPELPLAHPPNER
protocol: SPR, hPD-L1-His, comparison of IgG isotypes of PL2#3
observable: koff (s⁻¹)
A number alone suffices; assume s⁻¹.

Record PL2#3 IgG4 (antibody, V domains shown, Human IgG4) VH: EVQLVQSGGGLVKPGGSLRLSCAASGFTFSSYTMNWVRQAPGKGLEWVSSISSGSDYLYYADSVKGRFTISRDNAKNSLYLQMNSLRAEDTAVYYCARNELRWYPQAGAFDRWGQGTMVTVSS VL: QSVVTQPPSMSAAPGQRVTISCSGSSSYIESSYVGWYQQLPGTAPRLLIYDDDMRPSGIPDRFSGSKSGTSATLAITGLQTGDEADYYCEIWRSGLGGVFGGGTKLTVL . Reported koff: 0.000293
